Just for reference, patent US20210388087A1 is where these values come from.

Measured fold change of affinity, listed per entry.
TESTED TARGET: T1, Human CD3eg linker (human)
T1 construct: single-chain construct; also called recombinant human CD3
T1 chain: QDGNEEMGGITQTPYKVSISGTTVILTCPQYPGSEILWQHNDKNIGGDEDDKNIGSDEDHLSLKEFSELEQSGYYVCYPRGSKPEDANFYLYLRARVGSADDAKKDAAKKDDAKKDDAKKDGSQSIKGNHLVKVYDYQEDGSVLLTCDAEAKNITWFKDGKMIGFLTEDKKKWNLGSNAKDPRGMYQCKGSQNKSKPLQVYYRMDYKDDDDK
PROCEDURE DETAILS: SPR, vs unmutated H183/L072
Express it in fold; write the number only.

• dBBDu183H S99Y/dBBDu072L (antibody, name in Kabat numbering, V domains shown) VH: QVQLVESGGGLVQPGRSLRLSCAASGFTFSNAWMHWVRQAPGKGLEWVAQIKDKGNAYAAYYAPSVKGRFTISRDDSKNSIYLQMNSLKTEDTAVYYCHYVHYAYASTVLPAFGVDAWGQGTTVTVSS VL: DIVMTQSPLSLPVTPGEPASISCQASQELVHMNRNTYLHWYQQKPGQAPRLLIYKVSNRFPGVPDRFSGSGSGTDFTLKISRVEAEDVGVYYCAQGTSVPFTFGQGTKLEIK = 0.8
• dBBDu183H F100gE/dBBDu072L (antibody, name in Kabat numbering, V domains shown) VH: QVQLVESGGGLVQPGRSLRLSCAASGFTFSNAWMHWVRQAPGKGLEWVAQIKDKGNAYAAYYAPSVKGRFTISRDDSKNSIYLQMNSLKTEDTAVYYCHYVHYASASTVLPAEGVDAWGQGTTVTVSS VL: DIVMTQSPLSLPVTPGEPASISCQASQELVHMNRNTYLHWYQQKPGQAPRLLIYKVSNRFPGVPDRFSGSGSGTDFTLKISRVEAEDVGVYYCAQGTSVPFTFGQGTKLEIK = 0.5

Now take the following binder into account.
Note fold change of affinity for the binder shown: dBBDu183H Y94T/dBBDu072L (antibody, name in Kabat numbering, V domains shown) VH: QVQLVESGGGLVQPGRSLRLSCAASGFTFSNAWMHWVRQAPGKGLEWVAQIKDKGNAYAAYYAPSVKGRFTISRDDSKNSIYLQMNSLKTEDTAVYYCHTVHYASASTVLPAFGVDAWGQGTTVTVSS VL: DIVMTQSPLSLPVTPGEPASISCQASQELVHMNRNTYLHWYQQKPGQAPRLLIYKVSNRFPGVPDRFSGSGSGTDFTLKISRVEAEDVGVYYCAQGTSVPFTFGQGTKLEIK
0.3
